The reported numbers originate from ChEMBL document CHEMBL1152852.

Organism: Rattus norvegicus
Experiment: Selectivity ratio of Ki for rat liver sigma 2 receptor to Ki for rat liver sigma 1 receptor
In this section, each of the molecules is paired with its reported Ratio Ki.

Look over these answered cases.
1. O=c1oc2ccccc2n1CC1CCN(Cc2ccc(Cl)cc2Cl)CC1 ... 1.5
2. O=c1oc2ccccc2n1CC1CCN(Cc2ccc(-c3ccccc3)cc2)CC1 ... > 25

Quick check: Ratio Ki of CN(CCCc1cn(-c2ccc(F)cc2)c2ccccc12)Cc1ccccc1 ?
22

Try this molecule too: O=c1oc2ccccc2n1CC1CCN(Cc2ccc(F)cc2)CC1
44

Can you handle Cc1ccc(CN2CCC(Cn3c(=O)oc4ccccc43)CC2)c(C)c1 next?
6

What do you have for Cc1ccc(CN2CCC(Cn3c(=O)oc4ccccc43)CC2)cc1 ?
40

* * *

The entries below come with measured Ratio Ki values attached.
Species: Rattus norvegicus
Assay: Selectivity ratio of Ki for rat liver sigma 2 receptor to Ki for rat liver sigma 1 receptor
The reply should be a number, written without any unit.

Example entries begin here.
1. Cc1ccccc1CN1CCC(Cn2c(=O)oc3ccccc32)CC1 ... 10
2. Cc1cc(C)c(CN2CCC(Cn3c(=O)oc4ccccc43)CC2)c(C)c1 ... 0.5
3. CCC(=O)c1ccc2c(c1)oc(=O)n2CCCN1CCCCC1 ... 58
4. Cc1ccc(CN(C)CCCCc2cn(-c3ccc(F)cc3)c3ccccc23)c(C)c1 ... 0.05

Return reported Ratio Ki; argument: O=c1oc2ccccc2n1CC1CCN(Cc2ccccc2F)CC1
9

* * *

Target: Sigma non-opioid intracellular receptor 1 (Rattus norvegicus, UniProt Q9R0C9)
Sequence (Q9R0C9 whole entry): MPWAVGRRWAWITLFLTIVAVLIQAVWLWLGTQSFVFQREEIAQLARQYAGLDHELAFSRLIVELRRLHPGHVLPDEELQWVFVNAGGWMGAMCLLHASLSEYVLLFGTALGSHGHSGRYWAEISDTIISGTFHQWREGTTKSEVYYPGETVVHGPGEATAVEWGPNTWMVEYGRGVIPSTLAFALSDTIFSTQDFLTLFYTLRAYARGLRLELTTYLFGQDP
Assay: Displacement of [3H](+)-pentazocine from sigma 1 receptor in rat liver membrane
Listed here are compounds together with their documented Ki.
The reply should be a number in nM, with the unit left off.

Worked examples, 4 compounds total:
1. Cc1ccccc1CN1CCC(Cn2c(=O)oc3ccccc32)CC1 ... 33
2. O=c1oc2ccccc2n1CC1CCN(Cc2ccccc2F)CC1 ... 23
3. O=c1oc2ccccc2n1CC1CCN(Cc2ccc(F)cc2)CC1 ... 3.9
4. Cc1ccc(CN2CCC(Cn3c(=O)oc4ccccc43)CC2)cc1 ... 2.9

Requested read-out: Ki. Entry: Cc1cc(C)c(CN2CCC(Cn3c(=O)oc4ccccc43)CC2)c(C)c1
6230

Try the compound O=c1oc2ccccc2n1CC1CCN(Cc2ccc(Cl)cc2Cl)CC1
258

Then what about the compound O=c1oc2ccccc2n1CC1CCN(Cc2ccc(-c3ccccc3)cc2)CC1 ?
394

For Cc1ccc(CN2CCC(Cn3c(=O)oc4ccccc43)CC2)c(C)c1 then?
30

* * *

Experiment: Displacement of [3H]DTG from sigma 2 receptor in rat liver membrane
Assay type: cell membranes
ASSAY METRIC: log10 Ki (log10 of the value in nM)
Heads up: the numbers are on a log10 scale; they represent Ki in nM.

Give its log10 Ki value. Item: O=c1oc2ccccc2n1CC1CCN(Cc2ccc(F)cc2)CC1
2.23

Again, but for O=c1oc2ccccc2n1CC1CCN(Cc2ccccc2F)CC1
2.33

Then O=C(CCCN1CCC(O)(c2ccc(Cl)cc2)CC1)c1ccc(F)cc1 [HALOPERIDOL] ?
2.37

Proceed to O=c1oc2ccccc2n1CC1CCN(Cc2ccc(Cl)cc2Cl)CC1
2.58

Thanks! And O=c1oc2ccccc2n1CC1CCN(Cc2cccc3ccccc23)CC1 ?
3.11

// next record O=c1oc2ccccc2n1CC1CCN(Cc2ccc(Cl)cc2)CC1
2.63

And what about the molecule CN(CCCc1cn(-c2ccc(F)cc2)c2ccccc12)Cc1ccccc1 ?
0.77

Okay, and Cc1ccc(CN2CCC(Cn3c(=O)oc4ccccc43)CC2)c(C)c1 ?
2.27

Now consider CCC(=O)c1ccc2c(c1)oc(=O)n2CCCN1CCCCC1 .
0.93

Now consider Cc1ccc(CN(C)CCCCc2cn(-c3ccc(F)cc3)c3ccccc23)c(C)c1 .
0.77

// same read-out, input: CC(C)=CCN1CC[C@]2(C)c3cc(O)ccc3C[C@H]1[C@H]2C [(+)-PENTAZOCINE]
2.51
